System: 388556-164-R-J1-PDC complex spheroid viability;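 further: spheroids exposed to compound for 7 days before readout; 100% = DMSO vehicle control luminescence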
Assay: Anticancer human tumor 388556-164-R-J1-PDC patient-derived colon adenocarcinoma cell line growth inhibition [RAS]
Settings: second compound 0.00949 µM; first compound 0.0316 µM; stronger effect = lower value
Task for the reader: assign each of the following compounds its reported viability, T/C.
Give the value in % but do not write % after it.

Incoming: // lookup viability, T/C for C=CC(=O)Nc1cc(Nc2nccc(-c3cn(C)c4ccccc34)n2)c(OC)cc1N(C)CCN(C)C + CCn1c(-c2cccnc2C(C)OC)c2c3cc(ccc31)N1CCOC(CC(NC(=O)C(C(C)C)N(C)C(=O)C3(F)CCN(C(=O)C#CC(C)(C)N(C)C)CC3)C(=O)N3CCCC(N3)C(=O)OCC(C)(C)C2)C1
Outgoing: 90.9

Incoming: Which viability, T/C value belongs to NC1c2ccccc2OC12CCN(c1cnc3c(N4CCCc5ncccc54)n[nH]c3n1)CC2 (centres undefined) + CCn1c(-c2cccnc2C(C)OC)c2c3cc(ccc31)N1CCOC(CC(NC(=O)C(C(C)C)N(C)C(=O)C3(F)CCN(C(=O)C#CC(C)(C)N(C)C)CC3)C(=O)N3CCCC(N3)C(=O)OCC(C)(C)C2)C1 ?
Outgoing: 77.8

Incoming: Consider the compound shown here: CC(C)n1nc(-c2ccc3oc(N)nc3c2)c2c(N)ncnc21 + CCn1c(-c2cc(N3CCN(C)CC3)cnc2C(C)OC)c2c3cc(ccc31)-c1csc(n1)CC(NC(=O)C1CC1C)C(=O)N1CCCC(N1)C(=O)OCC(C)(C)C2 What is its recorded viability, T/C?
Outgoing: 47.1

Incoming: Requested field: viability, T/C. Item: Cc1nc(N2CCC3(CC2)COC(C)C3N)c(CO)nc1Sc1ccnc(N)c1Cl (centres undefined) + CCn1c(-c2cc(N3CCN(C)CC3)cnc2C(C)OC)c2c3cc(ccc31)-c1csc(n1)CC(NC(=O)C1CC1C)C(=O)N1CCCC(N1)C(=O)OCC(C)(C)C2
Outgoing: 68.7
